SK-MEL-28 GI50 data
Your answer should be a plain number; it is taken to be in µM.

CCn1cc(C(=O)O)c(=O)c2cc(F)c(N3CCN(S(=O)(=O)c4ccc(Cl)cc4)CC3)cc21 [Compound 1a] ... 4.88
CCn1cc(C(=O)O)c(=O)c2cc(F)c(N3CCN(S(=O)(=O)c4cccc5ccccc45)CC3)cc21 [Compound 7a] ... 6.09
O=C(O)c1cn(C2CC2)c2cc(N3CCN(S(=O)(=O)c4ccc(Cl)c(Cl)c4)CC3)c(F)cc2c1=O [Compound 3b] ... 2.67

Below: the item to evaluate.
Exam item: Requested read-out: GI50. Entry: CCn1cc(C(=O)O)c(=O)c2cc(F)c(N3CCN(S(=O)(=O)c4ccc(Cl)cc4Cl)CC3)cc21 [Compound 2a]
Marked response: 3.21

meta.source: patent EP2987533B1
